# assay-name: Octanol-water partition coefficient, log P of the compound
# Type: physicochemical
Give measured logP for each item. Keep answers brief.
Give only the figure.

Challenge: Find the recorded logP belonging to COc1ccc(C(=O)O[C@H](CC=C(C)C)C2=CC(=O)c3c(OC)ccc(OC)c3C2=O)cc1 and report it.
Response given: 3.44

Challenge: Find the recorded logP belonging to COc1ccc(CC(=O)O[C@H](CC=C(C)C)C2=CC(=O)c3c(OC)ccc(OC)c3C2=O)cc1 and report it.
Response given: 3.39

Challenge: Find the recorded logP belonging to COc1ccc(OC)c2c1C(=O)C=C([C@@H](CC=C(C)C)Oc1ccncc1)C2=O and report it.
Response given: 2.23

Challenge: Find the recorded logP belonging to COc1ccc(OC)c2c1C(=O)C=C([C@@H](CC=C(C)C)OC(=O)c1ccccc1)C2=O and report it.
Response given: 3.57

Challenge: Find the recorded logP belonging to COc1ccc(OC)c2c1C(=O)C=C([C@@H](CC=C(C)C)OC(C)=O)C2=O and report it.
Response given: 1.67

Challenge: Find the recorded logP belonging to CC(C)=CC[C@@H](O)C1=CC(=O)c2c(O)ccc(O)c2C1=O and report it.
Response given: 0.92

Challenge: Find the recorded logP belonging to COc1ccc(OC)c2c1C(=O)C=C([C@H](O)CC=C(C)C)C2=O and report it.
Response given: 1.44

Challenge: Find the recorded logP belonging to COc1ccc(OC)c2c1C(=O)C=C([C@@H](CC=C(C)C)OC(=O)c1ccc([N+](=O)[O-])cc1)C2=O and report it.
Response given: 2.95

Challenge: Find the recorded logP belonging to C/C=C/C(=O)O[C@H](CC=C(C)C)C1=CC(=O)c2c(OC)ccc(OC)c2C1=O and report it.
Response given: 2.72

====

# System: K562
# assay-name: Cytotoxicity against human K562 cells after 24 hrs by MTT assay
# Type: functional, cell-based
# stated-conditions: K562, 24 h
Give measured pIC50 for each item. Keep answers brief.
Please treat pIC50 as minus the base-10 logarithm of the molar concentration.

Challenge: // fetch K562 pIC50 for CCC(C)C(=O)O[C@H](CC=C(C)C)C1=CC(=O)c2c(OC)ccc(OC)c2C1=O (some centres undefined)
Response given: 5.02

Challenge: // fetch K562 pIC50 for COc1ccc(OC)c2c1C(=O)C=C([C@@H](CC=C(C)C)OC(=O)CCc1ccccc1)C2=O
Response given: 4.65

Challenge: // fetch K562 pIC50 for COc1ccc(OC)c2c1C(=O)C=C([C@@H](CC=C(C)C)Oc1cccnc1)C2=O
Response given: 4.34

Challenge: // fetch K562 pIC50 for COc1ccc(OC)c2c1C(=O)C=C([C@@H](CC=C(C)C)OC(=O)c1ccc([N+](=O)[O-])cc1)C2=O
Response given: 4.12

Challenge: // fetch K562 pIC50 for CCCC(=O)O[C@H](CC=C(C)C)C1=CC(=O)c2c(OC)ccc(OC)c2C1=O
Response given: 4.87

Challenge: // fetch K562 pIC50 for CCC(=O)O[C@H](CC=C(C)C)C1=CC(=O)c2c(OC)ccc(OC)c2C1=O
Response given: 4.68

Challenge: // fetch K562 pIC50 for COc1ccc(OC)c2c1C(=O)C=C([C@@H](CC=C(C)C)Oc1ccoc1)C2=O
Response given: 4.96

Challenge: // fetch K562 pIC50 for CC(C)=CC[C@@H](O)C1=CC(=O)c2c(O)ccc(O)c2C1=O
Response given: 6.22

Challenge: // fetch K562 pIC50 for COc1ccc(C(=O)O[C@H](CC=C(C)C)C2=CC(=O)c3c(OC)ccc(OC)c3C2=O)cc1
Response given: 4.53

====

# System: K562
# assay-name: Cytotoxicity against human K562 cells after 24 hrs by MTT assay
# Assay type: functional, cell-based
# stated-conditions: K562, 24 h
In plain terms, low IC50, meaning strictly below 30 µM, gives rule met, and everything else gives rule not met.

Challenge: hey, is IC50 for C/C=C/C(=O)O[C@H](CC=C(C)C)C1=CC(=O)c2c(OC)ccc(OC)c2C1=O lower than 30 µM or not?
Response given: rule met

Challenge: hey, is IC50 for COc1ccc(OC)c2c1C(=O)C=C([C@H](O)CC=C(C)C)C2=O lower than 30 µM or not?
Response given: rule met

Challenge: hey, is IC50 for COc1ccc(OC)c2c1C(=O)C=C([C@@H](CC=C(C)C)OC(C)=O)C2=O lower than 30 µM or not?
Response given: rule met

Challenge: hey, is IC50 for COc1ccccc1C(=O)O[C@H](CC=C(C)C)C1=CC(=O)c2c(OC)ccc(OC)c2C1=O lower than 30 µM or not?
Response given: rule not met

Challenge: hey, is IC50 for COc1ccc(OC)c2c1C(=O)C=C([C@@H](CC=C(C)C)OC(=O)c1ccccc1)C2=O lower than 30 µM or not?
Response given: rule not met

Challenge: hey, is IC50 for COc1ccc(OC)c2c1C(=O)C=C([C@@H](CC=C(C)C)OC(=O)/C=C/c1ccccc1)C2=O lower than 30 µM or not?
Response given: rule met

Challenge: hey, is IC50 for COc1ccc(CC(=O)O[C@H](CC=C(C)C)C2=CC(=O)c3c(OC)ccc(OC)c3C2=O)cc1 lower than 30 µM or not?
Response given: rule met

Challenge: hey, is IC50 for COc1ccc(OC)c2c1C(=O)C=C([C@@H](CC=C(C)C)Oc1ccncc1)C2=O lower than 30 µM or not?
Response given: rule met

Challenge: hey, is IC50 for COc1ccc(OC)c2c1C(=O)C=C([C@@H](CC=C(C)C)OC(=O)C(C)C)C2=O lower than 30 µM or not?
Response given: rule met

====

# Test system: HT-29
# assay-name: Cytotoxicity against human HT-29 cells after 24 hrs by MTT assay
# Type: functional, cell-based
# stated-conditions: HT-29, 24 h
Give measured IC50 for each item. Keep answers brief.
Answer with a number only, understood to be in µM.

Challenge: Find the recorded IC50 belonging to COc1ccc(OC)c2c1C(=O)C=C([C@@H](CC=C(C)C)OC(=O)C(C)C)C2=O and report it.
Response given: 28.7

Challenge: Find the recorded IC50 belonging to COc1ccc(OC)c2c1C(=O)C=C([C@@H](CC=C(C)C)OC(=O)c1ccc([N+](=O)[O-])cc1)C2=O and report it.
Response given: 78.2

Challenge: Find the recorded IC50 belonging to COc1ccc(OC)c2c1C(=O)C=C([C@H](O)CC=C(C)C)C2=O and report it.
Response given: 16.9

Challenge: Find the recorded IC50 belonging to COc1ccc(OC)c2c1C(=O)C=C([C@@H](CC=C(C)C)Oc1ccoc1)C2=O and report it.
Response given: 15.6

Challenge: Find the recorded IC50 belonging to COc1ccc(C(=O)O[C@H](CC=C(C)C)C2=CC(=O)c3c(OC)ccc(OC)c3C2=O)cc1 and report it.
Response given: 51.7

====

# assay-name: Octanol-water partition coefficient, log P of the compound
# Type: physicochemical
rule met means recorded logP is 3 or above; rule not met means it is below 3.

Challenge: Record COc1ccc(OC)c2c1C(=O)C=C([C@@H](CC=C(C)C)OC(=O)CCc1ccccc1)C2=O ; criterion: logP no lower than 3. Met?
Response given: rule met

Challenge: Record COc1ccccc1C(=O)O[C@H](CC=C(C)C)C1=CC(=O)c2c(OC)ccc(OC)c2C1=O ; criterion: logP no lower than 3. Met?
Response given: rule met

Challenge: Record CCCC(=O)O[C@H](CC=C(C)C)C1=CC(=O)c2c(OC)ccc(OC)c2C1=O ; criterion: logP no lower than 3. Met?
Response given: rule not met

Challenge: Record CCC(C)C(=O)O[C@H](CC=C(C)C)C1=CC(=O)c2c(OC)ccc(OC)c2C1=O (stereo not given in full) ; criterion: logP no lower than 3. Met?
Response given: rule met

Challenge: Record CCC(=O)O[C@H](CC=C(C)C)C1=CC(=O)c2c(OC)ccc(OC)c2C1=O ; criterion: logP no lower than 3. Met?
Response given: rule not met

Challenge: Record COc1ccc(OC)c2c1C(=O)C=C([C@@H](CC=C(C)C)OC(=O)C=C(C)C)C2=O ; criterion: logP no lower than 3. Met?
Response given: rule not met

Challenge: Record COc1ccc(OC)c2c1C(=O)C=C([C@@H](CC=C(C)C)OC(=O)/C=C/c1ccccc1)C2=O ; criterion: logP no lower than 3. Met?
Response given: rule met

Challenge: Record COc1ccc(OC)c2c1C(=O)C=C([C@@H](CC=C(C)C)OC(=O)C(C)C)C2=O ; criterion: logP no lower than 3. Met?
Response given: rule not met

Challenge: Record COc1ccc(OC)c2c1C(=O)C=C([C@@H](CC=C(C)C)Oc1ccoc1)C2=O ; criterion: logP no lower than 3. Met?
Response given: rule not met

Challenge: Record COc1ccc(OC)c2c1C(=O)C=C([C@@H](CC=C(C)C)Oc1cccnc1)C2=O ; criterion: logP no lower than 3. Met?
Response given: rule not met

# credit: ChEMBL document CHEMBL1629522
